All figures here come from ChEMBL document CHEMBL1201862.

Tested on: OVCAR-8
measurement_protocol: NCI tumour cell line growth inhibition, 48 h
Active and inactive are the calls of the source. Rule as the data show it: active = GI50 up to about 1.1 µM and inactive = higher.
Hi! Could you answer with just one of these? yes = active, no = inactive

compound	group_label
CCO/C([O-])=C(/C=O)[n+]1c(C)n(C)c2ccccc21	no

[in] Write down the call the test reported for this compound. Item: Cc1ccc(/C=N/n2c(-c3ccc(C)cc3)n[nH]c2=O)cc1
[out] no

[in] Write down the call the test reported for this compound. Item: CCCCN(c1ccccc1)c1ncnc2c1cnn2C
[out] no

[in] Write down the call the test reported for this compound. Item: O=c1[nH]c(=O)n(C2OC3COC2C3O)cc1F (stereo unspecified)
[out] no

[in] Write down the call the test reported for this compound. Item: COC1OC2COC1(OCc1ccccc1)C1OC(C)(C)OC21 (stereo unspecified)
[out] no

[in] Write down the call the test reported for this compound. Item: COc1ccc(/C(C)=N/OC(=O)c2c(-c3ccccc3Cl)noc2C)cc1CN1CCOCC1
[out] no

[in] Write down the call the test reported for this compound. Item: CC(=O)CC(=O)/C=C/c1cccs1
[out] no

[in] Write down the call the test reported for this compound. Item: O=C(O)C1C2c3ccccc3C(c3ccccc32)C1C(=O)NCC1CC1 (stereo unspecified)
[out] no

====

Test system: SN12C
measurement_protocol: NCI tumour cell line growth inhibition, 48 h
Activity calls are given as the source filed them. No stated cut-off is given here; in the data, active = GI50 up to about 1.1 µM and inactive = higher.
readout_label: GI50

Example cases with answers are listed next.
                        smiles_text  readout_label       recorded_value
0       CN[C@@H](C)[C@H](N)c1ccccc1           GI50  > 100 µM (inactive)
1  CCOC(=O)c1cn2c(n1)sc1cc(OC)ccc12           GI50   7.41 µM (inactive)
2    Cc1cc2c(nn1)CCc1c-2no[n+]1[O-]           GI50  > 100 µM (inactive)

[in] Using the record for C[C@H]1CC[C@@]2(NC1)O[C@H]1C[C@H]3[C@@H]4CC[C@H]5C[C@@H](O)CC[C@]5(C)[C@H]4CC[C@]3(C)[C@H]1[C@@H]2C , report its GI50.
[out] > 100 µM (inactive)

[in] Using the record for CCOC(=O)N1[C@@H]2CCC[C@@H]2C(=O)[C@@H]2CCC[C@@H]21 , report its GI50.
[out] > 100 µM (inactive)

====

Measured GI50 accompanies every entry in the list below.
Test system: SNB-19
measurement_protocol: NCI tumour cell line growth inhibition, 48 h
The source made the active and inactive calls. Cut-off read from the data, not from the text of the source: active = GI50 up to about 1.1 µM and inactive = higher.

Example cases with answers are listed next.
molecule	GI50
O=C(O)/C=C/c1nc2ccccc2c(=O)o1	> 100 µM (inactive)
C=[N+](CNC(=O)CNC(=O)C(Cc1ccc([N+](=O)[O-])cc1)NC(=O)OC(C)(C)C)C(=O)CNC(=O)C(Cc1ccc([N+](=O)[O-])cc1)NC(=O)OC(C)(C)C (stereo unspecified)	37 µM (inactive)
Oc1nnc(CNc2ccc(Cl)cc2Cl)c2ccccc12	28.1 µM (inactive)
COc1ccc(/N=N/C(=O)NC(CC(C)C)C(=O)NC(C)C(=O)O)cc1 (stereo unspecified)	> 100 µM (inactive)
COc1cc2cnc3c4ccccc4ccc3c2cc1OC	> 100 µM (inactive)

[in] Using the record for CCOC(=O)NC(Nc1ncn(C(NC(=O)OCC)(C(F)(F)F)C(F)(F)F)n1)(C(F)(F)F)C(F)(F)F , report its GI50.
[out] > 100 µM (inactive)

[in] Using the record for COc1cc(CNc2nc3cc(C(F)(F)F)ccc3nc2-c2ccccc2)cc(OC)c1OC , report its GI50.
[out] > 100 µM (inactive)

[in] Using the record for C1=C(c2ccccc2)NC2=N[C@H]3CCCC[C@@H]3N2C1c1ccccc1 (stereo partly specified) , report its GI50.
[out] 14.6 µM (inactive)

[in] Using the record for O=c1[nH]c(=O)n(COCCO)cc1-c1ccccc1 , report its GI50.
[out] > 100 µM (inactive)

[in] Using the record for CCCCCCCCCC(=O)OCC1OC(n2cc(F)c(=O)[nH]c2=O)C(N)C(OC(=O)CCCCCCCCC)C1O (stereo unspecified) , report its GI50.
[out] 17.4 µM (inactive)
